# measurement_notes: Antagonist activity at ryanodine receptor in sea urchin egg homogenates assessed as decrease in cADPcR-induced calcium release by fluorimetry
# Assay type: functional, tissue-based, Lytechinus pictus
Examples of molecules with documented IC50 follow.
Give just the numeric value; µM need not be written.

Record excerpt, results attached:
Asked: Data request, read-out IC50, for NCC[C@H]1OP(=O)([O-])OP(=O)(O)OC[C@H]2O[C@H]([C@H](O)[C@@H]2O)n2cnc3c(N)[n+](cnc32)[C@@H]2C[C@H]1[C@@H](O)[C@H]2O
Given back: 73

Asked: Again, but for [N-]=[N+]=NCC[C@H]1OP(=O)([O-])OP(=O)(O)OC[C@H]2O[C@H]([C@H](O)[C@@H]2O)n2cnc3c(N)[n+](cnc32)[C@@H]2C[C@H]1[C@@H](O)[C@H]2O
Given back: 14

Asked: Again, but for [N-]=[N+]=NCC[C@@H]1OP(=O)(O)OP(=O)([O-])OC[C@H]2O[C@H]([C@H](O)[C@@H]2O)n2cnc3c(N)[n+](cnc32)[C@@H]2C[C@H]1[C@@H](O)[C@H]2O
Given back: 19

Pending molecule:
Asked: Data request, read-out IC50, for NCC[C@@H]1OP(=O)([O-])OP(=O)(O)OC[C@H]2O[C@H]([C@H](O)[C@@H]2O)n2cnc3c(N)[n+](cnc32)[C@@H]2C[C@H]1[C@@H](O)[C@H]2O
Given back: 120

---

# measurement_notes: Stability in human serum at 37 degC after 3 days
# Assay type: ADME, cell-free
# measurement_parameters: read-out: Stability
outcome_measure: remaining at 72 h (%)
Give just the numeric value; % need not be written.

Asked: Data request, read-out remaining at 72 h, for [N-]=[N+]=NCC[C@@H]1OP(=O)(O)OP(=O)([O-])OC[C@H]2O[C@H]([C@H](O)[C@@H]2O)n2cnc3c(N)[n+](cnc32)[C@@H]2C[C@H]1[C@@H](O)[C@H]2O
Given back: 89

---

# measurement_notes: Agonist activity at ryanodine receptor in sea urchin egg homogenates assessed as effect on calcium release by fluorimetry
# Type: functional, Lytechinus pictus
outcome_measure: EC50 (nM)
Give just the numeric value; nM need not be written.

Asked: Data request, read-out EC50, for Nc1c2ncn3c2nc[n+]1[C@@H]1O[C@H](COP(=O)([O-])OP(=O)(O)OC[C@H]2O[C@@H]3[C@H](O)[C@@H]2O)[C@@H](O)[C@H]1O
Given back: 210

More entries:
Asked: Data request, read-out EC50, for Nc1c2ncn3c2nc[n+]1[C@@H]1C[C@H](COP(=O)([O-])OP(=O)(O)OC[C@H]2O[C@@H]3[C@H](O)[C@@H]2O)[C@@H](O)[C@H]1O
Given back: 79
